src = paper PMC9010763

- tested-on: SLC35B1 (Homo sapiens, UniProt P78383)
- Construct: isoform 1, C-terminal GFP fusion (hSLC35B1-GFP)
- Sequence (P78383 whole entry, the tested form may be a part, canonical isoform): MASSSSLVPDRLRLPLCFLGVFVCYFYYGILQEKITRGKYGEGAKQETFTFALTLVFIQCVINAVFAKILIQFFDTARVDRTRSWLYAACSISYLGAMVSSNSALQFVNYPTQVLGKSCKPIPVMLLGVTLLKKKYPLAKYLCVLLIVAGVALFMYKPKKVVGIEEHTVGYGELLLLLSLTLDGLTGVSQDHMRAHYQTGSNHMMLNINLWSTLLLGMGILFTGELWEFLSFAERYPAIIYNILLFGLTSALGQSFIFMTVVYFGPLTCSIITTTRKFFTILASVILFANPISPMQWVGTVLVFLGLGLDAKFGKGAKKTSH
- assay-name: [α^[…]]ATP uptake competition and counter-exchange, purified protein in PC-liposomes
- Type: biochemical
recorded-metric: pKi
# pKi is unitless: minus log10 of the molar concentration; print number only

Suppose we examine the compound O=c1ccn([C@@H]2O[C@H](COP(=O)(O)OP(=O)(O)O)[C@@H](O)[C@H]2O)c(=O)[nH]1 ; what pKi value has been reported?
4.08
